assay: Saturation mutagenesis of SEQ ID NO:109: dicamba decarboxylation activity of point mutants (CO2 released), fold of backbone (Tables 7, 8, Megatable 1); conditions: decarboxylation activity (CO2 released) of point mutant vs unmutated backbone protein; backbone SEQ ID NO: 109
Collected Fold Activity values appear next to each entry.
Your reply should be a number followed by the unit it is expressed in.

36 (protein, listed as Agrobacterium sp.) MAQGKVALEEHFAIPETLQDSAGFVPGDYWTELQHRLLDIQDTRLKLMDAHGIETMILSLNAPAVQAIPDKTKAIEIARRANDALAEECAKRPNRFLAFAALPLQDPDAATQELQRCVNDLGFVGALVNGFSQEGDGQIPLYYDLPQYRPFWGEVEKLDVPFYLHPRNPLPQDSRIYDGHPWLLGPTWAFAQETAVHALRLMASGLFDEHPRLNIILGHMGEGLPYMMWRIDHRNAWVKLPPRYPAKRRFVDYFNENFHITTSGNFRTQTLIDAILEIGADRILFSTDWPFENIDHASDWFHATSIAEADRVKIGRTNARRLFKLDGR | 2 fold
135 (protein, Dicamba decarboxylase variant) MAQGKVALEEHFAIPETLQDSAGFVPGDYWKELQHRLLDIQDTRLRLMDAHGIETMILSLAAPAVQAIPDRRKAIEIARRANDFLAEECAKRPDRFLAFAALPLQDPDAATEELQRCVNDLGFVGALVNGFSVEGDGQTPLYYDLPQYRPFWGEVEKLDVPFYLHPRNPLPQDSRIYDGHPWLLGPTWAFAQETAVHALRLMASGLFDEHPRLNIILGHLGEGLPYMMYRIDHRIAWVKLPPRYPAKRRFMDYFLENFHITTSGNFRTQTLIDAILEIGADRILFSTDWPFENIDHAADWFNATSIAEADRVKIGRTNARRLFKLDGD | 1.5 fold
55 (protein, listed as Serratia sp.) MAKIICLEEHTLDKALVMASMPAALEQAPFLSDWGKTVTDGNLPDRSRPQIEKNDLINIKGADIGRGRLDDMDVAGITMQVLSVGGFPHLISAAEGVDLNRAANDRLADAVNAHPDRFAAFATLPWAQPDSAEKELERAVKELGFKGALLNGRPSTHFLDHPDYDGLLARFNALGVPLYLHPGLPVRSVQQAYYGGFSDEVTARLSMFGWGWHHEAGIHLLRLILSGAFDKYPNLQVISGHWGEMLPFWLQRLDDSLPQAATGLRRTIAQTFKEQVYVTPSGMLTLPHFQFIYALLGAERIIFSVDYPYQTLDGVKAFIQSLPVPEEAKEAIAFRNAERLLGLTS | 1.5 fold
265 (protein, Dicamba decarboxylase variant) MAQGKVALEEHFAIPETLNDSAGFVPGDYWKELQHRLLDIQDTRLKLMDAHGIETMILSLAAPAVQAIPDRRKAIEIARRANDFLAEECAKRPDRFLAFAALPLQDPDAATEELQRTVNDLGFVGALVNGFSQEGDGQTPLYYDLPQYRPFWGEVEKLDVPFYLHPRNPLPQDSRIYDGHPWLLGPTWAFAQETAVHALRLMASGLFDEHPRLNIILGHMGEGLPYMMYRIDHRIAWVKLPPRYPAKRRFMDYFNENFHITTSGNFRTQTLIDAILEIGADRILFSTDWPFENIDHAADWFNATSIAEADRLKIGRTNARRLFKLDLD | 1.8 fold
158 (protein, Dicamba decarboxylase variant) MAQGKVALEEHFAIPETLNDSAGFVPGDYWKELQHRLLDIQDTRLKLMDAHGIETMILSLAAPAVQAIPDRRKAIEIARRANDFLAEECAKRPDRFLAFAALPLQDPDAATEELQRCVNDLGFVGALVNGFSQEGDGQTPLYYDLPQYRPFWGEVEKLDVPFYLHPRNPLPQDSRIYDGHPWLLGPTWAFAQETAVHALRLMASGLFDEHPRLNIILGHMGEGLPYMMYRIDHRIAWVKLPPRYPAKRRFMDYFNENFHITTSGNFRTQTLIDAILEIGADRILFSTDWPFENIDHATAWFNATSIAEADRVKIGRTNARRLFKLDGA | 1.6 fold

Entry under test: 25 (protein, listed as Acidovorax avenae) MAQGKIGLEEHFAIPETLQDSAGFVPGDYWKELSLRLLDIHERRLREMDENGMEMMILSLNAPAVQAIPDTKKAVEIAVRANDFLAEQVARRPDRFQAFAALPMQDPDLATRELERCMQDLGFRGALVNGFSQVGTPENVVYYDAPQYGDFWAAVERLDAPFYLHPRNPIASWAQIYQGHPWLMGPTWAFAQETAVHALRLMASGLFDRHPGLRIILGHLGEGLPYNMWRVDHRNAWVDMPKGYPAKRKLCDYFHENFYLTTSGNFRTQTLIDALLEVGADRILFSTDWPFENVDHAAHWFDDAAISEADRLKIGRTNALSLFKLPQG . Its Fold Activity was 1 fold

Entry under test: 79 (protein, Pyrenophora teres) MATTTTPSTLIATLESHLTPTLAFTSPTTSPTQPALHLIPPTTLTKLRNLGPGRVKDMHMLGHSRQIISHIPVAAPPQICSRFNDAIHAATMTNTAKFSVLAVLPTDGMEAAKELARCVSKYRFVGGVIGLNRGLRINGEGWEELWGLAERLRIPIMFREMWPLAFEIVDYQHHLPYSALGPILTQLHTSHTSSPLPLVRLYLSSVFDHYPSLRLVLAHPGSLPSLVPRIESLINSIPATDKPKRSFLDVWQHNIYLTTADAQDMSSLRALLEQIPVDRVLYASNYPFEERGNELMNELRESEFLTNIEWERVAWVNAETLFNLKEAGTKEARQLTTIPSSRS . Its Fold Activity was 0.9 fold
